Known viability, T/C of a selection of compounds
Test system: 521955-158-R2-J5-PDC complex spheroid viability;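 further: spheroids exposed to agents for seven days; percent of DMSO vehicle control luminescence viability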
Test: Anticancer human tumor 521955-158-R2-J5-PDC patient-derived pancreatic carcinoma cell line growth inhibition
Conditions: second compound 10 µM; first compound 1 µM; stronger effect = lower value

compound	viability, T/C (%)
O=C(c1cc(Cc2n[nH]c(=O)c3ccccc23)ccc1F)N1CCN(C(=O)C2CC2)CC1 + NC1CC1c1ccc(-c2cccc(O)c2)cc1	78.4
CC1(C)CCC(CN2CCN(c3ccc(C(=O)NS(=O)(=O)c4ccc(NCC5CCOCC5)c([N+](=O)[O-])c4)c(Oc4cnc5[nH]ccc5c4)c3)CC2)=C(c2ccc(Cl)cc2)C1 + NC1CC1c1ccc(-c2cccc(O)c2)cc1	86.6
Nc1ncn(C2CC(O)C(CO)O2)c(=O)n1 (configuration not stated) + NC1CCC(NC2CC2c2ccccc2)CC1	51.6
COc1ccc([C@@H](O)c2cc(-c3ncnc4cc(N5CCOCC5)ccc34)c(F)cc2Cl)nn1 + NC1CCC(NC2CC2c2ccccc2)CC1	42.2
CC(C)c1c(-c2ccccc2)nc2c(C#N)c[nH]n2c1=O + NC1CC1c1ccc(-c2cccc(O)c2)cc1	61.8
O=C(C=Cn1cnc(-c2cc(C(F)(F)F)cc(C(F)(F)F)c2)n1)NNc1cnccn1 + NC1CC1c1ccc(-c2cccc(O)c2)cc1	16.8
CC1COCCN1c1cc(C2(S(C)(=N)=O)CC2)nc(-c2ccnc3[nH]ccc23)n1 (configuration not stated) + NC1CC1c1ccc(-c2cccc(O)c2)cc1	30.7
